System: P12-Ichikawa
Measurement Protocol: AUC of viability dose-response curve (% viability x log10 dose units); higher = less sensitive
Assay Conditions: RPMI 5 mM glucose + 10% FBS; 48 h
Examples of compounds with documented AUC of viability dose-response curve follow.
// return a plain number; no unit text

Request: // output AUC of viability dose-response curve; input CC[C@H](C)C(=O)O[C@H]1C[C@H](O)\C=C2\C=C/[C@H](C)[C@H](CC[C@@H](O)C[C@@H](O)CC(O)=O)[C@@H]12 ; system P12-Ichikawa
Result: 460

Request: Give AUC of viability dose-response curve only, for COc1cc(OC)c(OC)cc1C=O , using P12-Ichikawa data.
Result: 440

Alright, here's another compound for you.
Request: Fetch value of AUC of viability dose-response curve on P12-Ichikawa for COc1ccc2[nH]c([S+]([O-])Cc3ncc(C)c(OC)c3C)nc2c1 (stereo not drawn) .
Result: 398

---

// reported cell viability per item
Tested on: NOMO1
Measurement Protocol: cell viability relative to DMSO control; higher = less cytotoxic
Assay Conditions: RPMI 5 mM glucose + 10% FBS; 48 h; 0.19 µM
Give your result in % as a bare value.

Please review the following examples before continuing.
Request: Tell me cell viability reported for N[S+](=O)([O-])c1cccc2c1C(=O)c1cccc(O)c1C2=O
Result: 107

Request: Report measured cell viability; entry is C[C@]12CC[C@H]3[C@@H](C\C=C/4C[C@@H](O)CC[C@]34C)[C@@H]1CCC2=O
Result: 105

***
Request: Entry CC[C@@]1(O)C(=O)OCC/2=C1/C=C3\N(CC4=CC5=CC(=CC=C5N=C34)O)C2=O needs its cell viability filled in; supply it.
Result: 33.3

Request: Using the record for Nc1cccc2c1CN([C@H]1CCC(=O)NC1=O)C2=O , state its measured cell viability.
Result: 114

Request: Identify cell viability associated with the molecule Cc1cc(C(=O)N2CCN(c3cccc(Cl)c3)CC2)n(-c2ccccc2)n1
Result: 99.7

Request: Entry CN(C)c1nc(Cc2ccc(NC(=O)c3ccc4ccccc4c3)cc2)nc(Cl)c1CC(=O)O needs its cell viability filled in; supply it.
Result: 97

Request: Supply reported cell viability belonging to this molecule: O=C(c1ccc(F)c(F)c1Nc1ccc(I)cc1F)N1CC(O)([C@@H]2CCCCN2)C1
Result: 74.1

Request: Consider the molecule COC[C@H](c1ccc(C(F)(F)F)cc1)N1CCN(C2(C)CCN(C(=O)c3c(C)ncnc3C)CC2)C[C@H]1C.O=C(O)/C=C\C(=O)O and give its recorded cell viability.
Result: 103

Request: Entry CN(C)CCOc1ccc(-c2nc(-c3ccncc3)c(-c3ccc4c(c3)CC/C4=N\O)[nH]2)cc1 needs its cell viability filled in; supply it.
Result: 112

Request: For the molecule COC1=CC=CC(=C1N)\C2=C\C(=O)C3=C(O2)C=CC=C3 , report cell viability.
Result: 125

Request: Note cell viability for the molecule shown: CCC\C1=C\C(=O)NC(=S)N1
Result: 109

Request: Quick one: give measured cell viability for C[S+](=O)([O-])c1ccc(-c2cnc(N)c(C(=O)Nc3ccccc3)n2)cc1
Result: 133

Request: Name the recorded cell viability of the item CC(C)C[C@H](NC(=O)CNC(=O)c1cc(Cl)ccc1Cl)B(O)O in your answer.
Result: 86.2

Request: Check the records and state cell viability for CC(/C=C/C(=O)NO)=C\[C@@H](C)C(=O)c1ccc(N(C)C)cc1
Result: 109

Request: Tell me its cell viability given CC[C@@]1(O)C(=O)OC\C2=C1\C=C\3N(CC4=C3N=C5C=CC=CC5=C4)C2=O as the entry.
Result: 22.3

Request: Item CN1CCN2c3ncccc3Cc3ccccc3C2C1 (configuration not stated) : provide cell viability
Result: 103

Request: Give reported cell viability value for NC(=O)c1cccc2cn(-c3ccc([C@@H]4CCCNC4)cc3)nc12
Result: 97.1

---

System: P12-Ichikawa
Measurement Protocol: cell viability relative to DMSO control; higher = less cytotoxic
Assay Conditions: RPMI 5 mM glucose + 10% dialyzed FBS; 48 h; 0.000781 µM
Documented cell viability across a set of molecules
// note: answer is a bare numeric in %

Request: Dear colleague, please send me the reported cell viability for CN1c2ccccc2C(=O)N2CCc3c([nH]c4ccccc34)C21 (stereo unspecified) when you can.
Result: 127

Request: Name the recorded cell viability of the item Nc1nc(N)c2nc(-c3cccc(O)c3)c(-c3cccc(O)c3)nc2n1 in your answer.
Result: 111

Request: Give cell viability for the following molecule: COc1ccc(Nc2nccc(NCCO)n2)cc1
Result: 69

Request: State its cell viability: O=C(Cc1ccc(-c2ccc(OCCN3CCOCC3)cc2)cn1)NCc1ccccc1
Result: 122

Request: State, in one line, measured cell viability of CC/1=C(/C(CC(=O)N1)C2=CC=C(C=C2)C(F)(F)F)C(=O)NC3=C(F)C=C4[NH]N=CC4=C3 (stereo unspecified)
Result: 95.3

---

Tested on: P12-Ichikawa
Measurement Protocol: cell viability relative to DMSO control; higher = less cytotoxic
Assay Conditions: HPLM + 10% dialyzed FBS; 48 h; 0.00234 µM
Assay Readout: cell viability (%)
Answer in %, number only, no unit symbol.

Please review the following examples before continuing.
Request: Fill in: cell viability on P12-Ichikawa, entry CN(C)c1nc(Cc2ccc(NC(=O)c3ccc4ccccc4c3)cc2)nc(Cl)c1CC(=O)O
Result: 112

Request: Provide measured cell viability on P12-Ichikawa for COc1cccc([C@@H](C)NCCCc2ccccc2Cl)c1 please.
Result: 98

Request: Write down measured cell viability (P12-Ichikawa) for this molecule. CC1(C)CNc2cc(NC(=O)c3cccnc3NCc3ccncc3)ccc21
Result: 115

***
Request: State cell viability on P12-Ichikawa. Entry: Cn1c(=O)n(-c2ccc(C(C)(C)C#N)cc2)c2c3cc(-c4cnc5ccccc5c4)ccc3ncc21
Result: 120

---

System: NOMO1
Measurement Protocol: cell viability relative to DMSO control; higher = less cytotoxic
Assay Conditions: RPMI 5 mM glucose + 10% FBS; 48 h; 46.1 µM
cell viability listing for selected molecules.
Lab book: enter the figure in %, no units written.

See these solved cases before continuing.
Request: Report cell viability, nothing else, for this molecule: Cc1cc(C(=O)N2CCN(c3cccc(Cl)c3)CC2)n(-c2ccccc2)n1
Result: 14.8

Request: Return cell viability (reported value) for this molecule: CCOC(=O)c1cncn1[C@H](C)c1ccccc1
Result: 125

Request: Supply recorded cell viability for COC1=CC=CC(=C1N)\C2=C\C(=O)C3=C(O2)C=CC=C3 here.
Result: 116

Request: Return cell viability for the following molecule: NC/1=N/C(=O)N(/C=C1F)[C@H]2CS[C@H](CO)O2
Result: 141

Request: Fill in cell viability for record NCCCCNCCCN
Result: 27.7

More entries:
Request: Tell me cell viability reported for Cc1csc(NC(=O)c2sc3nc4c(c(C(F)(F)F)c3c2N)CCC4)n1
Result: 85.5

---

Test system: SEM cells
Measurement Protocol: cell viability relative to DMSO control; higher = less cytotoxic
Assay Conditions: RPMI 5 mM glucose + 10% FBS; 48 h; 0.00234 µM
// cell viability lookup, one value per entry
Unit % implied. Number only.

Would you please look over these solved cases?
Request: Tell me measured cell viability for c1ccc(CNc2nc(N3CCOc4ccccc43)nc3c2CCCC3)cc1 please.
Result: 88.6

Request: Provide cell viability value for the following molecule: CCC\C1=C\C(=O)NC(=S)N1
Result: 91.9

Request: State, in one line, measured cell viability of CC1(N2CCC(n3c([C@@H]4CCCNC4)nc4ccccc43)CC2)CCCCCCC1
Result: 87.8

Next:
Request: Look up and state reported cell viability for Nc1cc(C(F)(F)F)c(-c2cc(N3CCOCC3)nc(N3CCOCC3)n2)cn1
Result: 89.2

---

Test system: SEM cells
Measurement Protocol: cell viability relative to DMSO control; higher = less cytotoxic
Assay Conditions: RPMI 5 mM glucose + 10% dialyzed FBS; 48 h; 0.0211 µM
The reader will find reported cell viability values listed item by item below.
Field format: number, assumed %, no unit text.

Request: Quick one: give measured cell viability for COC/1=C/C=C2\C(=C/C1=O)[C@H](CCC3=CC(=C(OC)C(=C23)OC)OC)NC(C)=O
Result: 21.8

Request: State, in one line, measured cell viability of CCN(CC)CCCCNc1ncc2c(n1)N(C)C(=O)N(c1c(Cl)c(OC)cc(OC)c1Cl)C2
Result: 114

Request: Answer with the recorded cell viability of CN1\N=C(N)/C2=C[N]([C@@H]3O[C@H](CO[P](O)(O)=O)[C@@H](O)[C@H]3O)C4=C2C1=NC=N4 only.
Result: 38.9

---

Each item that follows carries a reported cell viability.
Tested on: P12-Ichikawa
Measurement Protocol: cell viability relative to DMSO control; higher = less cytotoxic
Assay Conditions: RPMI 5 mM glucose + 10% dialyzed FBS; 48 h; 0.000781 µM
Please state the figure in %; there is no need to write the unit.

Request: Recall and state the measured cell viability for CC(C)C[C@H](NC(=O)CNC(=O)c1cc(Cl)ccc1Cl)B(O)O .
Result: 88.7

Request: State its cell viability for this compound: Nc1nnc(-c2cccc(Cl)c2Cl)c(N)n1
Result: 83.8

Request: Give recorded cell viability. CN[C@@H](C)C(=O)N[C@H]1CN(C(=O)CC(C)C)CC[C@H]2CC[C@@H](C(=O)NC(c3ccccc3)c3ccccc3)N2C1=O
Result: 90.1

Request: Let me know recorded cell viability for COc1cccc([C@@H](C)NCCCc2ccccc2Cl)c1 , thanks.
Result: 83.1

Request: Let me know recorded cell viability for CC[C@]12\C=C/CN3CC[C@]4([C@@H](N(C)C5=CC(=C(C=C45)[C@]6(C[C@H]7C[C@H](CN(C7)CC8=C6[NH]C9=C8C=CC=C9)C(C)(F)F)C(=O)OC)OC)[C@](O)([C@@H]1OC(C)=O)C(=O)OC)[C@H]23 , thanks.
Result: 87.4

We now examine a further compound.
Request: Item COc1ccc(C2Sc3ccccc3N(CCN(C)C)C(=O)C2OC(C)=O)cc1 (stereo unspecified) : provide cell viability
Result: 122
